The measured values listed here are drawn from PubChem BioAssay (NCI).

System: BT-549 breast
Test Protocol: NCI-60 one-dose screen, 48 h
Cond: 10 µM
The panel holds about 83,000 compounds, 20% with a hit somewhere; the sample as a whole holds those more often. Active and inactive are the calls of the source. How the source made its calls: active means growth percent below 10; inactive means the rest.
Your answer must be one of the following: active, inactive

Compound	Class
O=C1/C(=C\c2ccccc2)CN(C(=O)c2ccccc2)C/C1=C\c1ccccc1	active
O=[P@@]1(c2ccccc2)O[C@H](COCc2ccccc2)[C@@H](OCc2ccccc2)[C@H](OCc2ccccc2)[C@H]1O	inactive
N=C(N)c1ccc(-c2ccc(-c3cccs3)s2)cc1	inactive

Task: What call does the record list for O=C(Nc1ccncc1)C(=O)c1cn(S(=O)(=O)c2ccc(F)cc2)c2ccccc12 ?
Result: inactive

Task: In this assay, the call recorded for Oc1[nH]c2ccc(Cl)cc2c1/C=c1/ccc2c(c1)N=C(c1cc(F)cc(F)c1)N=2 was what?
Result: inactive

---

Test system: 786-0 renal
Test Protocol: NCI-60 one-dose screen, 48 h (100 = growth as untreated, 0 = no growth, -100 = all killed)
Cond: 10 µM
About 83,000 compounds went through this panel and 20% of them were active in at least one assay; those are over-represented in the sample as a whole.
Measured Endpoint: growth (%)
Reply numerically in %, unit not repeated.

Solved cases (4 shown):
Compound	Measured On	growth / %
COc1ccc(/C(=C2/O[C@@H]([C@H]3COC(C)(C)O3)[C@H]3OC(C)(C)O[C@@H]23)c2cc(OC)c(OC)c(OC)c2)cc1O	786-0 renal	86.3
CC(C)(C#N)Nc1ccccc1	786-0 renal	101
Nc1ccc2cc(S(=O)(=O)O)cc(O)c2c1N=Nc1ccc(F)cc1	786-0 renal	100
CCOCCOCCOCCOCCOCCOCCOCCOCCOCCO (tested in a mixture with another compound)	786-0 renal	39.3

Proceeding to the next compound to report its growth.
Task: Can you look up the measured growth of COc1cc(-c2cc(C(=O)N3CCN(C(=O)c4ccccc4NCc4ccco4)CC3)nc3cc(-c4ccccc4)nn23)cc(OC)c1OC for me?
Result: 31.6

---

System: KM12 colon
Test Protocol: NCI-60 one-dose screen, 48 h (100 = growth as untreated, 0 = no growth, -100 = all killed)
Cond: 10 µM
Compounds without any hit were thinned out: in the full panel of roughly 83,000, 20% have a hit.
Measured Endpoint: growth (%)
Your answer should be a plain number; it is taken to be in %.

Compound	Measured On	Unit Label	Number
O=C1ON=[N+](c2ccc(Cc3ccc([N+]4=NOC(=O)C4CN4CCOCC4)cc3)cc2)C1CN1CCOCC1 (stereo not given)	KM12 colon	%	54.3
O=C1OCC2=C1C(c1cccc(Br)c1)c1cc3c(cc1N2CCO)CCC3 (stereo not given)	KM12 colon	%	-47.5
COc1cc(-c2cc(/C=C3\C(=O)Nc4ccc(Cl)cc43)[nH]n2)cc(OC)c1OC	KM12 colon	%	7.16
CC/C(=N\N=C(/CC)c1ccc(Br)cc1)c1ccc(Br)cc1	KM12 colon	%	99.5
COc1ccc(C2CC(c3ccc(N(C)C)cc3)=NN2c2ccc(S(N)(=O)=O)cc2)cc1 (stereo not given)	KM12 colon	%	29.1

Task: Can you look up growth on KM12 colon for C[C@@H]1C=C2C(=O)O[C@@H]3CC[C@H](C1)[C@]23O ?
Result: 100
